For each of the molecules below, state its [ ] (μM) t30 min. Prodrug.
# ASSAY SUMMARY: Conversion of prodrug derivatives to active inhibitors in mouse plasma
# Type: in vitro ADME
# SETTINGS: 37° C., 10 μM start, prodrug remaining, 30 min
Your answer should be a plain number; it is taken to be in µM.

Task item: Fill in the blank: the reported [ ] (μM) t30 min. Prodrug of "CCOC(=O)c1c(OC(=O)C(C)C)c(OC(=O)C(C)C)c(C(=O)N(C)C)n1-c1ccc(OCCOCCOCCOC)cc1" is ____.
Reply: 0

Task item: And "CCOC(=O)c1c(OC(=O)C(C)C)c(OC(=O)C(C)C)c(C(=O)N(C)C)n1-c1ccc(OC)cc1" ?
Reply: 0

Task item: And then "CCOC(=O)c1c(OC(=O)C(C)(C)COCCOCCOP(=O)(O)O)c(OC(=O)C(C)(C)COCCOCCOP(=O)(O)O)c(C(=O)N(C)C)n1-c1ccc(OC)cc1" , what is it?
Reply: 4.26

Task item: Request: "CCOC(=O)c1c(OC(=O)C(C)(C)COCCOCCOC)c(OC(=O)C(C)(C)COCCOCCOC)c(C(=O)N(C)C)n1-c1ccc(OC)cc1"
Reply: 2.47

Task item: Same thing, different molecule: "CCOC(=O)c1c(O)c(OC(=O)N(C)C)c(C(=O)N(C)C)n1-c1ccc(OC)cc1"
Reply: 10.00

----------
# Assay type: in vitro ADME
# SETTINGS: human plasma, 37° C., 10 μM start, prodrug remaining, 30 min
Binarize [ ] (μM) t30 min. Prodrug (Human) at 9 µM; below is TRUE, at or above is FALSE.

Task item: Please let me know if "CCOC(=O)c1c(OC(=O)C(C)C)c(OC(=O)C(C)C)c(C(=O)N(C)C)n1-c1ccc(OCCOCCOCCOC)cc1" shows [ ] (μM) t30 min. Prodrug (Human) below 9 µM.
Reply: TRUE

Task item: Note, next up: "COc1ccc(-n2c(C(=O)N(C)C)c(OC(=O)C(C)C)c(OC(=O)C(C)C)c2C(=O)N(C)C)cc1"
Reply: FALSE

Task item: Request: "CCOC(=O)c1c(O)c(OCOP(=O)(O)O)c(C(=O)N(C)C)n1-c1ccc(OC)cc1"
Reply: TRUE

Task item: Next entry: "CCOC(=O)c1c(OC(=O)C(C)(C)COCCOCCOC)c(OC(=O)C(C)(C)COCCOCCOC)c(C(=O)N(C)C)n1-c1ccc(OC)cc1"
Reply: TRUE

Task item: Field entry: "CCOC(=O)c1c(O)c(OP(=O)(O)O)c(C(=O)N(C)C)n1-c1ccc(OC)cc1"
Reply: TRUE

Task item: Same read-out for "CCOC(=O)c1c(OC(=O)C(C)(C)COCCOCCOP(=O)(O)O)c(OC(=O)C(C)(C)COCCOCCOP(=O)(O)O)c(C(=O)N(C)C)n1-c1ccc(OC)cc1" ?
Reply: FALSE

Task item: Same again, this time with "CCOC(=O)c1c(OCOP(=O)(O)O)c(O)c(C(=O)N(C)C)n1-c1ccc(OC)cc1"
Reply: FALSE

----------
# SYSTEM TESTED: pneumolysin (Streptococcus pneumoniae serotype 2, UniProt Q04IN8)
# Sequence (Q04IN8 whole entry): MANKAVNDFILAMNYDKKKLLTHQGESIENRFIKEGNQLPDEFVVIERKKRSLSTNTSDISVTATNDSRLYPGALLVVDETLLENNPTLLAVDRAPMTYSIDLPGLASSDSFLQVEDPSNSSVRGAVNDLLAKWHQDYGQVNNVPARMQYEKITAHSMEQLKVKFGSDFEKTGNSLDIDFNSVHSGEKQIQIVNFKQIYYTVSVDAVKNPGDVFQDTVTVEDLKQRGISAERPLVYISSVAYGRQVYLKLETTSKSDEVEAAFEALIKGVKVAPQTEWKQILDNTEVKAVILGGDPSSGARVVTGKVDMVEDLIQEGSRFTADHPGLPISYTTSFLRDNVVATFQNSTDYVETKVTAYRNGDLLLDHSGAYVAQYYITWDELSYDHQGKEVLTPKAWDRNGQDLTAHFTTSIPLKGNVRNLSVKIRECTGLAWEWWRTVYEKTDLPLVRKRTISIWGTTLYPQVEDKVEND
# ASSAY SUMMARY: Inhibition of the haemolytic activity of pneumolysin (sheep erythrocytes)
# Type: cell-based
# SETTINGS: IC50, inhibition of pneumolysin-induced haemolysis of sheep erythrocytes; class symbols of Table 1
OBSERVABLE: IC50

Task item: Suppose we examine the compound CCN(CC)C(=O)c1c(O)c(O)c(C(=O)N(CC)CC)n1-c1ccc(OC)cc1 [UL1-003] ; what IC50 value has been reported?
Reply: < 10 µM

Task item: // same read-out, input: CCOC(=O)c1c(O)c(O)c(C(=O)OC(C)C)n1-c1ccc(OC)cc1 [UL2-021]
Reply: < 10 µM

Task item: Continue with CCOC(=O)c1c(OCc2ccccc2)c(OCc2ccccc2)c(C#N)n1-c1ccc(F)cc1 [UL1-060]
Reply: 20 to 60 µM

Task item: Note, next up: CCOC(=O)c1c(OCC(=O)OC(C)(C)C)c(OCc2ccccc2)c(C(=O)OCC)n1-c1ccc(OC)cc1 [UL2-028]
Reply: 20 to 60 µM

Task item: Query CCOc1ccc(-n2c(C(=O)N(C)C)c(OCc3ccccc3)c(OCc3ccccc3)c2C(=O)N(C)C)cc1 [UL1-052] next
Reply: < 10 µM

Task item: Same read-out for CCOC(=O)c1c(O)c(O)c(C(=O)N(CC)CC)n1-c1ccc(OC)cc1 [UL1-041] ?
Reply: < 10 µM

Task item: Can you handle COc1ccc(-n2c(C(=O)OC(C)C)c(O)c(O)c2C(=O)N(C)C)cc1 [UL1-035] next?
Reply: < 10 µM

Task item: Now try COc1ccccc1-n1c(C(=O)N(C)C)c(OCc2ccccc2)c(OCc2ccccc2)c1C(=O)N(C)C [UL1-050] .
Reply: 10 to 20 µM

----------
# SYSTEM TESTED: pneumolysin (Streptococcus pneumoniae serotype 2, UniProt Q04IN8)
# ASSAY SUMMARY: Inhibition of the haemolytic activity of pneumolysin (sheep erythrocytes)
# Format: cell-based
# SETTINGS: IC50, inhibition of pneumolysin-induced haemolysis of sheep erythrocytes; class symbols of Table 1
OBSERVABLE: IC50

Task item: I am curious: what IC50 value has been reported for CCOC(=O)c1c(O)c(O)c(C(=O)OCC)n1-c1ccccc1 [UL2-002] ?
Reply: < 10 µM

Task item: Next up: COc1ccc(-n2c(C(=O)N3CCN(C(=O)OC(C)(C)C)CC3)c(OCc3ccccc3)c(OCc3ccccc3)c2C(=O)N2CCN(C(=O)OC(C)(C)C)CC2)cc1 [UL1-048]
Reply: < 10 µM

Task item: Would you mind doing CCOC(=O)c1c(O)c(O)c(C(=O)N2CCOCC2)n1-c1ccc(OC)cc1 [UL1-040] as well?
Reply: < 10 µM

Task item: Same question for CCOC(=O)c1c(O)c(O)c(C(=O)N(C)C)n1-c1ccc(OCCOC)cc1 [UL1-093] please.
Reply: < 10 µM

Task item: Try this molecule next: CCNC(=O)c1c(OCc2ccccc2)c(OCc2ccccc2)c(C(=O)NCC)n1-c1ccc(OC)cc1 [UL1-074]
Reply: 20 to 60 µM

Task item: Query COc1ccc(-n2c(C(=O)N(C)C)c(O)c(O)c2S(=O)(=O)NC(=O)OC(C)(C)C)cc1 [UL1-030] next
Reply: 20 to 60 µM

Task item: Moving on to the next molecule: COc1ccc(-n2c(C(=O)N(C)C)c(OCc3ccccc3)c(OCc3ccccc3)c2C(=O)N2CCOCC2)cc1 [UL1-058]
Reply: 20 to 60 µM

Task item: And what about the molecule CCOC(=O)c1c(O)c(O)c(C(=O)OCC)n1-c1ccc(OC)cc1 [UL2-001] ?
Reply: < 10 µM

----------
# SYSTEM TESTED: UniProt:Q04IN8
# ASSAY SUMMARY: Inhibition of the haemolytic activity of pneumolysin (sheep erythrocytes)
# Format: cell-based
# SETTINGS: IC50, inhibition of pneumolysin-induced haemolysis of sheep erythrocytes; class symbols of Table 1
Assign IC50 to each entry below.

Task item: Which IC50 value is on record for CCOC(=O)c1c(OCc2ccccc2)c(OCc2ccccc2)c(C(=O)N(C)C)n1-c1ccc(I)cc1 [UL1-062] ?
Reply: < 10 µM

Task item: Can you handle O=C(c1c(O)c(O)c(C(=O)N2CCOCC2)n1-c1ccc(F)cc1)N1CCOCC1 [UL1-006] next?
Reply: < 10 µM

Task item: How about CCOC(=O)c1c(OCc2ccccc2)c(OCc2ccccc2)c(-c2ccncc2)n1-c1ccc(OC)cc1 [UL1-084] ?
Reply: < 10 µM

Task item: How about this molecule: CCOC(=O)c1c(OCc2ccccc2)c(OCc2ccccc2)c(-c2ccccc2OC)n1-c1ccc(OC)cc1 [UL1-081]
Reply: 20 to 60 µM

----------
# ASSAY SUMMARY: Conversion of prodrug derivatives to active inhibitors in mouse plasma
# Format: in vitro ADME
# SETTINGS: 37° C., 10 μM start, prodrug remaining, 120 min
OBSERVABLE: [ ] (μM) t120 min. Prodrug
Answer format reminder: number followed by unit.

Task item: Entry "CCOC(=O)c1c(O)c(OC(=O)N(C)C)c(C(=O)N(C)C)n1-c1ccc(OC)cc1" has what [ ] (μM) t120 min. Prodrug?
Reply: 9.50 µM

Task item: How about "CCOC(=O)c1c(OC(=O)N(C)C)c(OC(=O)N(C)C)c(C(=O)N(C)C)n1-c1ccc(OC)cc1" ?
Reply: 8.50 µM

Task item: Again, but for "CCOC(=O)c1c(OC(=O)C(C)(C)COCCCOP(=O)(O)O)c(OC(=O)C(C)(C)COCCCOP(=O)(O)O)c(C(=O)N(C)C)n1-c1ccc(OC)cc1"
Reply: 0.23 µM

Task item: Same for "CCOC(=O)c1c(OC(=O)C(C)(C)C)c(OC(=O)C(C)(C)C)c(C(=O)N(C)C)n1-c1ccc(OC)cc1"
Reply: 0 µM

Task item: Repeat with "CCOC(=O)c1c(O)c(OCOP(=O)(O)O)c(C(=O)N(C)C)n1-c1ccc(OC)cc1"
Reply: 0.73 µM

Task item: What would you report for "CCOC(=O)c1c(OC(=O)CCOCCOC)c(OC(=O)CCOCCOC)c(C(=O)N(C)C)n1-c1ccc(OC)cc1" ?
Reply: 0 µM

Task item: Can you check "CCOC(=O)c1c(OC(C)=O)c(OC(C)=O)c(C(=O)N(C)C)n1-c1ccc(OC)cc1" next?
Reply: 0 µM

Task item: Next compound: "CCOC(=O)c1c(OC(=O)C(C)C)c(OC(=O)C(C)C)c(C(=O)N(C)C)n1-c1ccc(OC)cc1"
Reply: 0 µM
